The following molecules each carry a recorded IC50 for MAPK14 (human) (UniProt Q16539).

Worked cases, answers included:
>  <molecule>
O=C1CCC(Sc2ccc(F)cc2F)CN1c1c(Cl)ncc(CO)c1Cl (stereo unspecified)

>  <target_or_test_system>
MAPK14 (human) (UniProt Q16539)
Sequence (Q16539 whole entry, looked up): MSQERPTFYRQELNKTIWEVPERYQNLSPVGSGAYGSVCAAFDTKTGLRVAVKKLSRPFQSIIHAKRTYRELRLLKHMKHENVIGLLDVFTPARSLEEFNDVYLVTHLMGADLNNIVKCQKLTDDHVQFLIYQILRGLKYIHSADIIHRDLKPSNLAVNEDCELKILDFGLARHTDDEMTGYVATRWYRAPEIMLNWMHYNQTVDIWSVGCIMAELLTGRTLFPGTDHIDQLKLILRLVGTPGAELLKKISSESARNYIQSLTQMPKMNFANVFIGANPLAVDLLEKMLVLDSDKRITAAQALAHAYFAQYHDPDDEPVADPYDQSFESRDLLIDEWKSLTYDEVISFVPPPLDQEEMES

>  <IC50>
≤ 10 µM

$$$$
>  <molecule>
O=C1OCC(Cc2ccc(F)cc2F)CN1c1c(Cl)ccc(O)c1Cl (stereo unspecified)

>  <target_or_test_system>
MAPK14 (human) (UniProt Q16539)

>  <IC50>
≤ 10 µM

$$$$
>  <molecule>
O=C1COC(Cc2ccccc2F)CN1c1c(Cl)cccc1Cl (stereo unspecified)

>  <target_or_test_system>
MAPK14 (human) (UniProt Q16539)

>  <IC50>
≤ 10 µM

$$$$

API: value(readout=IC50, system=MAPK14 (human) (UniProt Q16539)) for record Cc1cc(C)cc(OC2CCC(=O)N(c3c(Cl)csc3Cl)C2)c1 (stereo unspecified)
≤ 10 µM

Query for MAPK14 (human) (UniProt Q16539): what IC50 does the record show for C[C@@H]1C[C@H](Cc2ccc(F)cc2F)CN(c2c(Cl)cc(NCCN(C)C)cc2Cl)C1=O ?
≤ 10 µM

What value of IC50 on MAPK14 (human) (UniProt Q16539) does O=C(Cc1ccccc1)Nc1ccc(Cl)c(N2CC(Cc3ccc(F)cc3F)CNC2=O)c1Cl (stereo unspecified) have?
≤ 10 µM

----------
Parameter: IC50. Scope: all listed entries.
target_or_test_system: MAPK14 (human) (UniProt Q16539)

Write down the reported IC50 of O=C1CCC(Cc2ccccc2)CN1c1ccccc1Cl (stereo unspecified) , test system: MAPK14 (human) (UniProt Q16539).
≤ 10 µM

Cited source for all entries: the Kinase Knowledgebase extract (Sharma et al. 2016)
